Sourced from PubChem BioAssay

- METHOD_NOTES: RPL19A-GFP modulators, yeast TOR pathway, confirmation, cell-based, S. cerevisiae, flow cytometry, cherry picks, mother/daughter gates (AID 2270)
- CONDITION_SET: S. cerevisiae RPL19A-GFP strain, 3 h, measured here: daughter cell gate, at 10 µM, stronger effect = lower value, 100 = same GFP as DMSO wells
ASSAY_READOUT: GFP response vs DMSO (%)

MOLECULE | VALUE_UNIT | VALUE_MEASURED
Cn1cc([N+](=O)[O-])c(C(=O)Nc2nc(-c3ccc(Cl)cc3)cs2)n1 | % | 97
C[C@@H](C(=O)Nc1nc2ccc(F)cc2s1)N1C(=O)C2CC=CCC2C1=O (stereo partly specified) | % | 97.8
O=[N+]([O-])c1cc(O)c2ncccc2c1 | % | 94.2
COc1ccc(C(=O)/C=C2/C(=O)Nc3ccccc32)cc1OC | % | 98.8
O=[N+]([O-])c1cccc(-c2ccc(/C=N/Nc3nc(N4CCCCC4)nc(N4CCCCC4)n3)o2)c1 | % | 94.3
Cc1ccc(NC(=S)c2nc3ccccc3[nH]2)cc1 | % | 99.6
COc1cccc2c1Oc1ncccc1N(C(=O)CCC(=O)NCc1ccccc1Cl)C2 | % | 97.9
CSc1ccc(/C=C/C(=O)c2ccc(NC(=O)C(C)C)cc2)cc1 | % | 97.5
COc1ccccc1-c1noc(-c2cccnc2)n1 | % | 93
O=C1ON=C(c2ccccc2)/C1=C\c1ccco1 | % | 90.8
O=C(Oc1oc(-c2ccco2)nc1C=Nc1ccccc1)c1ccco1 | % | 106
